- systemName: PDE type III (Canis lupus familiaris, UniProt A0A8I3NYE0)
- Construct: PDE was purified from the aorta in a dog; from tissue; host or cells: dog aorta
- assayOverview: PDE Inhibiting Activity, type III
- Assay type: biochemical, dog (canine aorta)
quantityName: pIC50
Numbers only, as −log10 of the molar value.

pIC50 in this record for "CCNC(=O)COc1cc2c(=O)c(Cc3cccnc3)cn3c4cc(Br)ccc4c(c1)c23" : 4.85

----------
- systemName: PDE type III (Canis lupus familiaris)
- Construct: PDE was purified from the aorta in a dog; from tissue; host or cells: dog aorta
- assayOverview: PDE Inhibiting Activity, type III
- Type: biochemical, dog (canine aorta)
- conditions: PDE type III from canine aorta, 1 μM substrate, pH 7.5; read-out: Inhibition Activity IC50, Type III
pIC50: −log10 of the molar value.
Answer each item with its documented pIC50.

# molecule, systemName, pIC50
data = [
    ("COc1cc2c(=O)ccn3c4ccc(Br)cc4c(c1)c23 [Example 58]", "PDE type III (Canis lupus familiaris)", "< 5.00"),
    ("COc1cc2c(=O)c(Cc3ccccc3)cn3c4cc(Br)ccc4c(c1)c23 [Example 121]", "PDE type III (Canis lupus familiaris)", "< 4.52"),
    ("COc1cc2c(=O)c(Cc3cccnc3)cn3c4cc(Br)ccc4c(c1)c23 [Example 101]", "PDE type III (Canis lupus familiaris)", "< 4.52"),
    ("O=c1ccn2c3ccc(Br)cc3c3cc(OCc4ncon4)cc1c32 [Example 76]", "PDE type III (Canis lupus familiaris)", "< 4.52"),
    ("Cc1cn2c3ccc(Br)cc3c3cc(OCC(=O)OC(C)(C)C)cc(c1=O)c32 [Example 50]", "PDE type III (Canis lupus familiaris)", "< 4.52"),
]

The reported value for CC(=O)OCc1cncc(COc2cc3c(=O)c(Cc4cccnc4)cn4c5cc(Br)ccc5c(c2)c34)c1 [Example 106] in terms of pIC50 is < 4.52

----------
- systemName: PDE type III (Canis lupus familiaris)
- Construct: PDE was purified from the aorta in a dog; from tissue; host or cells: dog aorta
- Sequence (A0A8I3NYE0 1-1135): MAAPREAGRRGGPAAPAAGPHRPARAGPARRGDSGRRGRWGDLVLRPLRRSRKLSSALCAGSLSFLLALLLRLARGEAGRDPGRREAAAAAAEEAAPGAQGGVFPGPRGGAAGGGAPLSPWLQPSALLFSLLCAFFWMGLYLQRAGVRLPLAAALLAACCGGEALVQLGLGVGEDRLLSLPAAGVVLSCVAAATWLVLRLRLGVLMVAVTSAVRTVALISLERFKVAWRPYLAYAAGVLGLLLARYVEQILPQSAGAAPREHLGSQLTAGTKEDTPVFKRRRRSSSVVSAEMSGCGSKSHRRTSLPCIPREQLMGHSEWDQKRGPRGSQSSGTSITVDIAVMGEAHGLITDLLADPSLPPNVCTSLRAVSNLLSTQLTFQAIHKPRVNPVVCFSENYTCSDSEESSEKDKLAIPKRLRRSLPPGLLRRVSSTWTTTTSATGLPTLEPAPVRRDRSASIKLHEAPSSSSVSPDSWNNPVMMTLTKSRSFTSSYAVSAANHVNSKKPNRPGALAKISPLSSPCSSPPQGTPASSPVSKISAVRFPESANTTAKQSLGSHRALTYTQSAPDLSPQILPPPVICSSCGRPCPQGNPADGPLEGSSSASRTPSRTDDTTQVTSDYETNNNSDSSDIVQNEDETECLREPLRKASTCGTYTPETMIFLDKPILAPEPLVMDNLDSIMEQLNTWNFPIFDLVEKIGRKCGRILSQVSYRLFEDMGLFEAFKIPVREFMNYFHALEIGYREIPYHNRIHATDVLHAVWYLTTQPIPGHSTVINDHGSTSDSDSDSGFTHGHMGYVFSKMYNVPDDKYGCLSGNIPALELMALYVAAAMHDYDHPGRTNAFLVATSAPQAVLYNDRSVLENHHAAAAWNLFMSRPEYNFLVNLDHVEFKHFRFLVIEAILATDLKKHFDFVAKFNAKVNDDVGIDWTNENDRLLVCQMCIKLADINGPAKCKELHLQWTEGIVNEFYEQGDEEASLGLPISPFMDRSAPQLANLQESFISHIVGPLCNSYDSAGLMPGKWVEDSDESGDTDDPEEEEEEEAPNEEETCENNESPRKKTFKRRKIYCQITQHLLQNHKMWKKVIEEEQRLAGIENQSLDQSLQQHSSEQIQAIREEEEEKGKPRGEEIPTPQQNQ
- assayOverview: PDE Inhibiting Activity, type III
- Assay type: biochemical, dog (canine aorta)
- conditions: PDE type III from canine aorta, 1 μM substrate, pH 7.5; read-out: Inhibition Activity IC50, Type III
quantityName: IC50

The cases that follow already have their IC50 on record.
# compound, systemName, IC50
rows = [
    ("CCOC(=O)COc1cc2c(=O)c(C)cn3c4ccc(Br)cc4c(c1)c23 [Example 52]", "PDE type III (Canis lupus familiaris)", "> 30 µM"),
    ("CC(=O)Oc1cc2c(=O)ccn3c4ccc(Br)cc4c(c1)c23 [Example 82]", "PDE type III (Canis lupus familiaris)", "> 100 µM"),
    ("CC(C)(C)OC(=O)COc1cc2c(=O)c(Cc3cccnc3)cn3c4cc(Br)ccc4c(c1)c23 [Example 103]", "PDE type III (Canis lupus familiaris)", "> 30 µM"),
    ("O=c1ccn2c3ccc(Br)cc3c3cc(OCc4ccccc4)cc1c32 [Example 66]", "PDE type III (Canis lupus familiaris)", "> 30 µM"),
]

As a next step, examine the compound that follows.
Lab book: IC50 of COc1cc2c(=O)c(C)cn3c4ccc(Br)cc4c(c1)c23 [Example 48] noted as > 100 µM

Attribution: patent US6197768A
